# Test system: MS2 coat protein
# Test: apparent KD of MS2 coat protein; designed switch direction (-1 OFF switch, 1 ON switch): 1; higher = weaker reporter binding
# Measurement Conditions: input ligand: FMN 200 uM
apparent KD of MS2 coat protein of 100 nM or higher: t. Under 100 nM: f.

Check out these entries, answers already filled in.
>>> category("GGUGCGAAUAAAGCCUACAUGAGGAUCACCCAUGUAUGUAGGCAGGAUAUCGUUUGCAAAGCAAACGAGAAGGGCUGUCGCACC [Mat - Same State NG 3 - JL Mod - D46] (Eterna round: R96, puzzle: Same State NG 3)")
"f"
>>> category("AUAAAACAUGAGGAUCACCCAUGUCAACAAAGUCGAGGAUAUGGGCAAAUAAAAUAAGAACCAGAAGGCGAAUAUU [salish99_ss1_r3_037] (Eterna round: R96, puzzle: Same State 1)")
"f"
>>> category("GGUCGGACUCACAUGAGGAUCACCCAUGUUGCGGAAACGCGGCAGGAUAUCUGUCCGAAAAGGUCAGAGAAGGGUCAACCGACC [Fiskers NG3ss - 62] (Eterna round: R96, puzzle: Same State NG 3)")
"t"

[in] Dear colleague, could you confirm whether AUUAUUUAUGCAGGAUAUGAUUAACAUGAGGAUCACCCAUGUGGUGUUGUGAGUAAGGAGAGUGAUCAGAAGGGCAUUUUUUUC [JMF's solution 59] (Eterna round: R96, puzzle: Same State NG 2) has apparent KD of MS2 coat protein at or above 100 nM?
[out] t

[in] Dear colleague, could you confirm whether GAGAGAUGGCUAGGAUAUUCGGUGAUAAUGAUAGAAGAAGGAGCUGACAUGAGGAUCACCCAUGUGGGAAUAAUCCAGAGAGAG [Parity 19 - Jieux - Same State NG 1] (Eterna round: R96, puzzle: Same State NG 1) has apparent KD of MS2 coat protein at or above 100 nM?
[out] t

[in] Dear colleague, could you confirm whether GGUCCAUCAUGAGGAUAUGGCACCUUAUUGGUGCCAGAAGGCAUGUCUAUUAGACAUGAGGAUCACCCAUGUAUAAAUUGGACC [Eli NG1ss - 91] (Eterna round: R96, puzzle: Same State NG 1) has apparent KD of MS2 coat protein at or above 100 nM?
[out] t

[in] Dear colleague, could you confirm whether GUCAGCGAUUGAGGAUAUCACGUCGUUUAGACGUGAGAAGGCGAUCAUAACAUGAGGAUCACCCAUGUAUUACAUGAAGCUGAC [SSNG1/5-A3] (Eterna round: R96, puzzle: Same State NG 1) has apparent KD of MS2 coat protein at or above 100 nM?
[out] f

---

# System: MS2 coat protein
# Test: apparent KD of MS2 coat protein; designed switch direction (-1 OFF switch, 1 ON switch): -1; higher = weaker reporter binding
# Measurement Conditions: input ligand: none
apparent KD of MS2 coat protein of 50 nM or higher: Criterion met. Under 50 nM: Criterion not met.

>>> category("GCCGGGCGUGUAGGAUAUGGCCGGCGGUGCCGGCCAGAAGGACAUGAGGAUCACCCAUGUGCCGGCCUUGGGCCGGCGCCCGGC [-51, -48 kcal and 14% A] (Eterna round: R96, puzzle: Exclusion NG 1)")
"Criterion not met"
>>> category("UAUUAAACAAGCAGAUCCCACAUGAGGAUCACCCAUGUGCUCGUCUUAUAAGGUACUGUGACGAUAGUCACGGUACC [Mat - Sensor, turn-off var - Eli Mod - D62] (Eterna round: R97, puzzle: Sensor, turn-off variant 1)")
"Criterion met"
>>> category("AUUGUGUGAGGAUAUUAGUAGUAAAUAAAUAAAAUUAUUACUGAGAAGGCACAUGAGGAUCACCCAUGUUCCUU [Salish 062 v5] (Eterna round: R97, puzzle: Exclusion 4)")
"Criterion not met"
>>> category("AUAAUUAAUCGAGGAUAUCAGCACGAUUAGUGCUGAGAAGGCGACAUGAGGAUCACCCAUGUGAUCAAUUAAUAUUAAUAUUAU [ENG1/11-C1] (Eterna round: R96, puzzle: Exclusion NG 1)")
"Criterion met"
>>> category("CUUAAUUGUCACAUGGGUGACAUGAGGAUCACCCAUGUCACAAGCUUUUUGCUCGUCUUAUAAUUAACCCAUGUGAC [Stov1/12-A3] (Eterna round: R97, puzzle: Sensor, turn-off variant 1)")
"Criterion not met"
>>> category("AUGGGUCCUCUCGGAGCGACAUGAGGAUCACCCAUGUGUGUUGAGGAUAUCCACUGCUAAGGACGGGAGAAGGCAGUGUACUGU [Ex NG3 #85] (Eterna round: R96, puzzle: Exclusion NG 3)")
"Criterion not met"
>>> category("GGAUGAGGAGUGAGGAUAUCGUGUUCGAAAGAACGUGAGAAGGCACAUGAGGAUCACCCAUGUGAUCCUCAUCG [Omei Ex4B A22] (Eterna round: R97, puzzle: Brourd's mod of Exclusion 4)")
"Criterion met"
>>> category("AGUCAAGAUGAGGAUAUCCGUGUAACAAACGCAGGAGAAGGCGUCACAUGAGGAUCACCCAUGUUGCCUCUAAG [Eternabot (L1) Solution 92] (Eterna round: R97, puzzle: Exclusion 6)")
"Criterion met"

Now, please, on to the next sequence.
[in] Dear colleague, could you confirm whether UUAUUACAAGCAAGAUCUCACAUGAGGAUCACCCAUGUGCUCGUCUUAAAAGGUACUGUGACGAAAGUCACGGUACC [Eli 100 v3] (Eterna round: R97, puzzle: Sensor, turn-off variant 1) has apparent KD of MS2 coat protein at or above 50 nM?
[out] Criterion not met
